# tested.target: UniProt C7FF04
# Sequence (C7FF04 1-392 limits assumed): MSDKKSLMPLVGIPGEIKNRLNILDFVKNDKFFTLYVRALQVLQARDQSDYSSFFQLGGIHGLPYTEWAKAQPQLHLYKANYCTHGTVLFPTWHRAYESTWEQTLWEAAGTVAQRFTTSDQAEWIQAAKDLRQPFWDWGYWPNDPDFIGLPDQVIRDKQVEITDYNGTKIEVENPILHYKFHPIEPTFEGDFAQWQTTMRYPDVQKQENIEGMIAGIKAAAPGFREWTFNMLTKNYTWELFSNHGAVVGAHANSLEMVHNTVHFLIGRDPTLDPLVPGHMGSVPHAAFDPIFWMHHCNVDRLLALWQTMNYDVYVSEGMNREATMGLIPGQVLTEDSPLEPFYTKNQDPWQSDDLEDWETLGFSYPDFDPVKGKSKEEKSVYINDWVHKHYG
# assay.text: biochemical
reported.endpoint: pIC50
Kindly note that pIC50 refers to -log10 of the concentration in mol/L and answer with the value alone.

Previously resolved entries follow.
> print(dat)
                                   compound  observed
1  O=Cc1ccc(OCc2cn(Cc3cc(=O)c(O)co3)nn2)cc1 [Compound 13c]      5.34
2  O=Cc1ccc(F)cc1OCc1cn(Cc2cc(=O)c(O)co2)nn1 [Compound 13f]      5.22

Ask: Can you look up the measured pIC50 of O=Cc1ccc(Cl)cc1OCc1cn(Cc2cc(=O)c(O)co2)nn1 [Compound 13m] for me?
Reply: 5.34

Ask: Can you look up the measured pIC50 of CC(C)(C)c1cccc(C=O)c1OCc1cn(Cc2cc(=O)c(O)co2)nn1 [Compound 13l] for me?
Reply: 5.30

Ask: Can you look up the measured pIC50 of O=Cc1cccc(OCc2cn(Cc3cc(=O)c(O)co3)nn2)c1 [Compound 13a] for me?
Reply: 5.61

Ask: Can you look up the measured pIC50 of CC(=O)c1cccc(OCc2cn(Cc3cc(=O)c(O)co3)nn2)c1 [Compound 13b] for me?
Reply: 5.34

Ask: Can you look up the measured pIC50 of O=Cc1ccccc1OCc1cn(Cc2cc(=O)c(O)co2)nn1 [Compound 13g] for me?
Reply: 5.68

Ask: Can you look up the measured pIC50 of O=C(Cc1ccc(Br)cc1)Nc1nnc(SCc2cn(Cc3cc(=O)c(O)co3)nn2)s1 for me?
Reply: 4.91

Ask: Can you look up the measured pIC50 of O=C(Nc1nnc(SCc2cn(Cc3cc(=O)c(O)co3)nn2)s1)c1ccc(F)cc1 for me?
Reply: 5.08

Ask: Can you look up the measured pIC50 of O=C(Cc1ccc(F)cc1)Nc1nnc(SCc2cn(Cc3cc(=O)c(O)co3)nn2)s1 for me?
Reply: 4.92

Ask: Can you look up the measured pIC50 of O=C(Nc1nnc(SCc2cn(Cc3cc(=O)c(O)co3)nn2)s1)c1ccccc1 for me?
Reply: 4.69

Ask: Can you look up the measured pIC50 of O=C(Cc1ccc(Cl)cc1)Nc1nnc(SCc2cn(Cc3cc(=O)c(O)co3)nn2)s1 for me?
Reply: 4.99

Ask: Can you look up the measured pIC50 of O=C(Nc1nnc(SCc2cn(Cc3cc(=O)c(O)co3)nn2)s1)c1ccc(Cl)cc1 for me?
Reply: 5.22

Ask: Can you look up the measured pIC50 of CC(=O)c1ccccc1OCc1cn(Cc2cc(=O)c(O)co2)nn1 [Compound 13k] for me?
Reply: 5.82

Ask: Can you look up the measured pIC50 of O=Cc1ccc(Br)cc1OCc1cn(Cc2cc(=O)c(O)co2)nn1 [Compound 13p] for me?
Reply: 5.37

Each recorded value in this set is attributed to paper PMC12041489.
